Tested on: MS2 coat protein
Experiment: apparent KD of MS2 coat protein, switch OFF state (with FMN for OFF switches, without FMN for ON switches); designed switch direction (-1 OFF switch, 1 ON switch): 1; higher = weaker reporter binding
Conditions: FMN input: 0 or 200 uM; Eterna round: R93 (includes R88 designs)
I'd be grateful if you could share measured apparent KD of MS2 coat protein for these entries.
Write it as a number; the unit nM goes unstated.

Would you mind telling me what apparent KD of MS2 coat protein value was observed for AUGAAAGUAACACAGGAUAUCCAGGAUACAACAUGAGGAUCACCCAUGUACAUACGAACGUAUAAGGAGAAGGGUGGAUGAUCUUC [ss2-2] ?
59.3

Would you mind telling me what apparent KD of MS2 coat protein value was observed for UAAGACGUGCAUCAGGAUAUGUUCCGAGGCACAUGAGGAUCACCCAUGUGGACGAAGCCUCGGGCACAGAAGGGAUCACUCAGAC [Laarma] ?
20.4

Would you mind telling me what apparent KD of MS2 coat protein value was observed for UAUAAACAUGAGGAUCACCCAUGUAGAAAUAUGGGAGGAUAUACAAAGACGAAAGUCAAAGUAGAAGGCCUAAUAU [Mat - Same State 1 - Mod - D155] ?
55.3

Would you mind telling me what apparent KD of MS2 coat protein value was observed for GAAAAACAUGAGGAUCACCCAUGUGUAAACAAGGGAGGAUAUACAAAGACGUAAGUCAAAGUAGAAGGCCUAAAAG [Garnet 38] ?
47.1

Would you mind telling me what apparent KD of MS2 coat protein value was observed for AGACAUAACAGAGAGGAUAUCCAAUAGAAAACAUGAGGAUCACCCAUGUGAAAGAUAAUAAAAUGGGAGAAGGCUCACAUACAGA [Topaz 40] ?
30.4

Would you mind telling me what apparent KD of MS2 coat protein value was observed for AAAAGACAUGAGGAUCACCCAUGUGAAAACGUAGGAGGAUAUGUCGUGAAAAAAGACUUGGCAGAAGGCCUGUGUC [SS1 - 43] ?
90.7

These data points were gathered from the supplement of paper PMC9170038.
